Biological target: NR1a/NR2B recombinant receptors (Homo sapiens, UniProt Q05586+Q13224)
Experiment: NMDA-induced currents in oocytes expressing NR1a/NR2B
Settings: 100 μM NMDA, 0.3 μM glycine, oocytes; read-out: IC50, inhibition of NMDA-induced currents
Description: Oocytes were obtained from Xenopus laevis frogs (Nasco or Xenopus I) kept in aquarium tanks at 19–21° C., on a 12 hr light/dark cycle. […] Oocytes were placed in a rectangular chamber (approximately […]) and perfused (2 ml/min) with frog Ringer (in mM) containing 115 NaCl, 2.5 KCl, 1.8 CaCl2, 10 HEPES (pH 7.2). […] Control responses were always measured before and after addition of the DCUKA. […] Data are expressed as the % inhibition of the agonist response obtained in the absence of the drug.
quantity_kind: IC50 (µM)
Provide the reading as a plain figure in µM.

Enquiry: For `O=C(O)c1cc(NC(=O)N(c2ccccc2)c2ccccc2)c2c(Cl)cc(Cl)cc2n1` , what is its reported IC50?
Return: 20.7

----------
biological target: α2-noradrenergic receptors; test: [3H]rauwolscine binding, rat cortex crude membranes; details: crude P1 membranes
quantity_kind: IC50

Enquiry: Query the reported IC50 for α2-noradrenergic receptors; item: O=C(O)c1cc(NC(=O)N(c2ccccc2)c2ccccc2)c2c(Cl)cc(Cl)cc2n1 [DCUKA]
Return: > 200 µM

----------
target: voltage-sensitive sodium channels; experiment: [3H]BTX binding to rat cortical synaptosomes; details: non-depolarizing conditions, none = no displacement at 100 μM, read-out: IC50 (μM) [3H]BTX binding
quantity_kind: IC50 (µM)
Provide the reading as a plain figure in µM.

Please review the following examples before continuing.
* COc1ccccc1N(C(=O)Nc1cc(C(=O)O)nc2cc(Cl)cc(Cl)c12)c1ccccc1 | 64
* NC(=O)N1c2ccccc2C=Cc2ccccc21 [Carbamazepine, carbamazepine, reference compound] | 71

Enquiry: For `O=C(O)c1cc(NC(=O)N(c2ccccc2)c2ccccc2)c2c(Cl)cc(Cl)cc2n1` , what is its reported IC50?
Return: 76
